// reported ΔG^0 per item
Target: human serum albumin (HSA) (Homo sapiens, UniProt P02768)
Sequence (P02768 25-609): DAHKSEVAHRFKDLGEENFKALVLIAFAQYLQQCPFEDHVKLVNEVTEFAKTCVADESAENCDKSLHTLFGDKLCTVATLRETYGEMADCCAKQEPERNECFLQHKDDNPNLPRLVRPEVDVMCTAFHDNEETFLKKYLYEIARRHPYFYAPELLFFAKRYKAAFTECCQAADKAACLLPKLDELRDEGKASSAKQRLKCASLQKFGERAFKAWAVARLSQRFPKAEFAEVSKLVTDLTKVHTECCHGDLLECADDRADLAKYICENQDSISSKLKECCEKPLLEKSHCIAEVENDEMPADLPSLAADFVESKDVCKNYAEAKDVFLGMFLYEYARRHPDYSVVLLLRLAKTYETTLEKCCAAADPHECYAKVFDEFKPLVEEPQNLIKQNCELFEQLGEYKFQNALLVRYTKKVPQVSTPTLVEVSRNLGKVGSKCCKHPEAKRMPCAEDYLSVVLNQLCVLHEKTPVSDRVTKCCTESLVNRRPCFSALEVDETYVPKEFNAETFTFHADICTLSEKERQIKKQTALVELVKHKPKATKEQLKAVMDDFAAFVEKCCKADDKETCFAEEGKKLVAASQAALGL
Experiment: Fluorescence emission spectrum (quenching) of HSA with carbamate pesticides
Type: binding
Conditions: 310 K
Number only, in kcal/mol; omit the unit.

Please review the entries below; each comes with its answer.
molecule	value_measured
CNC(=O)O/N=C(\SC)C(=O)N(C)C	-5.4567
CNC(=O)O/N=C(\C)C(C)S(C)(=O)=O (centres unmarked)	-4.8384
CNC(=O)Oc1cc(C)cc(C)c1 [XMC, 3,5-xylyl methylcarbamate]	-5.4522

// sample "CNC(=O)Oc1ccccc1OC(C)C" , its ΔG^0 was -4.93

Briefly, ΔG^0 measured for "CNC(=O)Oc1ccc(N(C)C)c(C)c1" : -4.3891

The reported ΔG^0 of the molecule "CNC(=O)ON=C(CSC)C(C)(C)C" was -4.8435

Form: molecule = "CNC(=O)ON=C(C)SC" ; ΔG^0 = -5.0514

# ΔG^0 of "CNC(=O)Oc1ccccc1C(C)C" = -4.3274
